Reference for the values: the RNAGym collection of RNA variant scans (doi:10.1021/acssynbio.7b00057)

B1: Pistol ribozyme (parent)
chain: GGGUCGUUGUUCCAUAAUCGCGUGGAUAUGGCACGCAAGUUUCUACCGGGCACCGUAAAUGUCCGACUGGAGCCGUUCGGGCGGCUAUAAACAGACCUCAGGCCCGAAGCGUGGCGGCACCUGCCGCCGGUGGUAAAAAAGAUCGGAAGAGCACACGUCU

# Variants of: B1
# assay-details: aptazyme ON/OFF ratio, guanine; higher = stronger switching; co-transcriptional cleavage with and without guanine
aptazyme ON/OFF ratio values by entry

Known aptazyme ON/OFF ratio results, listed for orientation:
>  <variant-designation>
U8G G9A U11G C13A

>  <aptazyme ON/OFF ratio>
1.07

$$$$
>  <variant-designation>
U7C G9C U10C U11A C12G C13A

>  <aptazyme ON/OFF ratio>
1.31

$$$$
>  <variant-designation>
U7G U8A C12A C13A

>  <aptazyme ON/OFF ratio>
1.27

$$$$
>  <variant-designation>
U8C G9U U11G C12G C13G

>  <aptazyme ON/OFF ratio>
1.1

$$$$

Record U8C G9C U10G C13G . Reported aptazyme ON/OFF ratio: 1.19

Entry under test: U7C U8A G9A U10A C12G C13A . Its aptazyme ON/OFF ratio was 1.23

The value of aptazyme ON/OFF ratio measured for the variant U7A G9U U11C C13U turned out to be 1.12
